# Test system: human PD-L1 on cells (human, UniProt Q9NZQ7 19-290)
# Sequence (Q9NZQ7 19-290): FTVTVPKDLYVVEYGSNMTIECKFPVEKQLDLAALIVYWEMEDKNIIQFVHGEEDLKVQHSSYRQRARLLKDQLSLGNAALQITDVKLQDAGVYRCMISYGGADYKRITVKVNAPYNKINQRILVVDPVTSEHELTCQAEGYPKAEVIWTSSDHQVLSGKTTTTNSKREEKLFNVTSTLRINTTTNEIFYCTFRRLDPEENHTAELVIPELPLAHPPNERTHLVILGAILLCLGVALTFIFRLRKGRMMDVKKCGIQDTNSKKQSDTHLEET
# Protocol summary: cell-based or functional assay
Response field label: string, one of 1 (yes) (IC50 (nM), NFAT-luciferase reporter gene assay strictly below 0.3 nM) or 0 (no).

Consider antibody 4 (VHH) VHH: EVQLVESGGGLVQAGDSLRLSCTASGRDFLTYGMGWFRQAPGKEREFVASINWSGSMTYYADSVKGRFTISRDNAKNTVYLQMNSLKPGDTAVYICAARRGAVTYASSNEYEHWGQGTQVTVSS . Does its IC50 (nM), NFAT-luciferase reporter gene assay lie strictly below 0.3 nM?
1 (yes)

Determine if antibody 3 (VHH) VHH: EVQLVESGGGSVQTGGSLRLSCVASGRDFLTYGMGWFRQAPGKEREFVASINWSGSMTYYADSVKGRFTISRDNAKNTVYLQMNSLKPGDTAVYICAARRGAVTYASSNEYEHWGQGTQVTVSS shows IC50 (nM), NFAT-luciferase reporter gene assay strictly lower than 0.3 nM.
1 (yes)

is_below(IC50 (nM), NFAT-luciferase reporter gene assay, 0.3 nM) for antibody 2 (VHH) VHH: QVQLVESGGGLVQPGGSLSLSCVASGFTFSSYAMRWVRQAPGKEPEWVAGINTGSEIVVYANSVRGRFAISRDNARDTLFLQMNSLKPEDTAVYYCATGLVSAEHDGIWGQGTQVTVSS ?
1 (yes)

Lab note: confirm whether the reported IC50 (nM), NFAT-luciferase reporter gene assay for this binder is below 0.3 nM, equality not counting. binder: antibody 1 (VHH, expressed in mammalian cells) VHH: QVQLVESGGGLVQAGGSLRLSCAASGRSFSSSGMGWFRQAPGKDREFVATINSSGGDTYYRDSVEGRFTTSRDNAKNTMSLQMNDLKPEDTAVYYCAAKEGGGPSSIPAIYDYWGQGTQVTVSS
0 (no)
